Field: pKi. Provide a value for each of the molecules that follow.
// pKi: -log10(molar conc.)

**Q:** Write down measured pKi (5-hydroxytryptamine receptor 2A (Homo sapiens)) for this molecule. COc1cc2c3c(c1O)-c1cc([N+](=O)[O-])ccc1CC3N(C)CC2 (stereo not drawn)
**A:** 6.04

**Q:** Write down measured pKi (5-hydroxytryptamine receptor 2A (Homo sapiens)) for this molecule. COc1cc2c3c(c1OC)-c1cc([N+](=O)[O-])ccc1CC3N(C)CC2 (stereo not drawn)
**A:** 5.87

**Q:** Write down measured pKi (5-hydroxytryptamine receptor 2A (Homo sapiens)) for this molecule. COc1cc2c3c(c1OC1CC1)-c1cc(N)ccc1CC3N(C)CC2 (stereo not drawn)
**A:** 6.96

**Q:** Write down measured pKi (5-hydroxytryptamine receptor 2A (Homo sapiens)) for this molecule. CN1CCc2cccc3c2C1Cc1ccc(N)cc1-3 (stereo not drawn)
**A:** 6.17

**Q:** Write down measured pKi (5-hydroxytryptamine receptor 2A (Homo sapiens)) for this molecule. COc1cc2c3c(c1OC)-c1cc(N)ccc1CC3N(C)CC2 (stereo not drawn)
**A:** 6.23

**Q:** Write down measured pKi (5-hydroxytryptamine receptor 2A (Homo sapiens)) for this molecule. COc1cc2c3c(c1O)-c1cc(N)ccc1CC3N(C)CC2 (stereo not drawn)
**A:** 6.07

**Q:** Write down measured pKi (5-hydroxytryptamine receptor 2A (Homo sapiens)) for this molecule. C#CCOc1c(OC)cc2c3c1-c1cc(N)ccc1CC3N(C)CC2 (stereo not drawn)
**A:** 6.42

**Q:** Write down measured pKi (5-hydroxytryptamine receptor 2A (Homo sapiens)) for this molecule. C=CCOc1c(OC)cc2c3c1-c1cc(N)ccc1CC3N(C)CC2 (stereo not drawn)
**A:** 6.63
